Where do these numbers come from? They come from a collection of fitness landscapes (doi:10.1126/science.1257360).

For each record, write down the corresponding enrichment ratio.
B1: PhoQ; a variant is named by its letters at X, in order, P23837 (parent)
chain: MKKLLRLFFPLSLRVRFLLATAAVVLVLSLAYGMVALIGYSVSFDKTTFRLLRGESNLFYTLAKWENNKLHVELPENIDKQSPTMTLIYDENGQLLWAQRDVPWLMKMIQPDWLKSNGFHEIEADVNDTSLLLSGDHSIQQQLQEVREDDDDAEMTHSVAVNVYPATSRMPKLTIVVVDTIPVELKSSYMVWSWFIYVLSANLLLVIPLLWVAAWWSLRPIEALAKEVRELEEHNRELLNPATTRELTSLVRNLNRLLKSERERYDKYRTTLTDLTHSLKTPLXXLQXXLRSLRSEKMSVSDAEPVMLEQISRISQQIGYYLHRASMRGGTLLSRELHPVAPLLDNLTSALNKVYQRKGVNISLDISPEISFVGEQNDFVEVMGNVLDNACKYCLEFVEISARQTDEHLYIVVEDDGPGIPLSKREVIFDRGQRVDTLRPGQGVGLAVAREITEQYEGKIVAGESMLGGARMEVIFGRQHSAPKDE

Variants of: B1
Experiment: enrichment ratio after two sorts for PhoP signalling (ratio (wild type AVST 3.29)); higher = more functional
Conditions: with PhoP (E. coli)
Over roughly 140,000 sequences, “enrichment ratio after two sorts for PhoP signalling” has its median near 0; the highest 2% begin near 11. What follows is part of a selection rich in the highest values, with near analogues and random picks from the rest.

-- ask Name the recorded enrichment ratio for "MEMC" .
-- reply 4.97

-- ask Name the recorded enrichment ratio for "STYQ" .
-- reply ≤ 0.25

-- ask Name the recorded enrichment ratio for "VYMC" .
-- reply 0.507

-- ask Name the recorded enrichment ratio for "HELT" .
-- reply ≤ 0.25

-- ask Name the recorded enrichment ratio for "ECHD" .
-- reply ≤ 0.25

-- ask Name the recorded enrichment ratio for "LHIP" .
-- reply ≤ 0.25

-- ask Name the recorded enrichment ratio for "TCMC" .
-- reply 24.2

-- ask Name the recorded enrichment ratio for "GLPS" .
-- reply ≤ 0.25

-- ask Name the recorded enrichment ratio for "FQMV" .
-- reply 0.463

-- ask Name the recorded enrichment ratio for "HMVE" .
-- reply ≤ 0.25

-- ask Name the recorded enrichment ratio for "VCMC" .
-- reply 1.73

-- ask Name the recorded enrichment ratio for "PISS" .
-- reply ≤ 0.25

-- ask Name the recorded enrichment ratio for "CTLV" .
-- reply 0.326

-- ask Name the recorded enrichment ratio for "PYIW" .
-- reply ≤ 0.25

-- ask Name the recorded enrichment ratio for "TTYQ" .
-- reply 11.4

-- ask Name the recorded enrichment ratio for "QFDL" .
-- reply ≤ 0.25

-- ask Name the recorded enrichment ratio for "RHYV" .
-- reply ≤ 0.25

-- ask Name the recorded enrichment ratio for "AECD" .
-- reply 17

-- ask Name the recorded enrichment ratio for "EECT" .
-- reply ≤ 0.25

-- ask Name the recorded enrichment ratio for "YTYQ" .
-- reply ≤ 0.25

-- ask Name the recorded enrichment ratio for "KNTT" .
-- reply ≤ 0.25

-- ask Name the recorded enrichment ratio for "AIQG" .
-- reply ≤ 0.25

-- ask Name the recorded enrichment ratio for "ITMN" .
-- reply ≤ 0.25

-- ask Name the recorded enrichment ratio for "FRDI" .
-- reply ≤ 0.25

-- ask Name the recorded enrichment ratio for "FLSH" .
-- reply ≤ 0.25

-- ask Name the recorded enrichment ratio for "TGYQ" .
-- reply 15.9

-- ask Name the recorded enrichment ratio for "ASTI" .
-- reply 13.9

-- ask Name the recorded enrichment ratio for "MILV" .
-- reply 13

-- ask Name the recorded enrichment ratio for "TDDA" .
-- reply ≤ 0.25

-- ask Name the recorded enrichment ratio for "AESR" .
-- reply 3.86

-- ask Name the recorded enrichment ratio for "KTSH" .
-- reply ≤ 0.25

-- ask Name the recorded enrichment ratio for "MQGH" .
-- reply ≤ 0.25

-- ask Name the recorded enrichment ratio for "QECT" .
-- reply 6.99

-- ask Name the recorded enrichment ratio for "ASLS" .
-- reply 10.2

-- ask Name the recorded enrichment ratio for "MIHK" .
-- reply ≤ 0.25

-- ask Name the recorded enrichment ratio for "GRTV" .
-- reply ≤ 0.25

-- ask Name the recorded enrichment ratio for "ARRF" .
-- reply ≤ 0.25

-- ask Name the recorded enrichment ratio for "RFHY" .
-- reply ≤ 0.25

-- ask Name the recorded enrichment ratio for "PMIW" .
-- reply ≤ 0.25

-- ask Name the recorded enrichment ratio for "QECD" .
-- reply ≤ 0.25

-- ask Name the recorded enrichment ratio for "NYCA" .
-- reply ≤ 0.25

-- ask Name the recorded enrichment ratio for "FMIW" .
-- reply ≤ 0.25

-- ask Name the recorded enrichment ratio for "WMWP" .
-- reply ≤ 0.25

-- ask Name the recorded enrichment ratio for "YYLV" .
-- reply ≤ 0.25

-- ask Name the recorded enrichment ratio for "VRLL" .
-- reply ≤ 0.25

-- ask Name the recorded enrichment ratio for "ASLK" .
-- reply 8.78

-- ask Name the recorded enrichment ratio for "INFP" .
-- reply ≤ 0.25

-- ask Name the recorded enrichment ratio for "AESI" .
-- reply 25.1

-- ask Name the recorded enrichment ratio for "GWCN" .
-- reply ≤ 0.25

-- ask Name the recorded enrichment ratio for "TCCT" .
-- reply 7.4

-- ask Name the recorded enrichment ratio for "HECT" .
-- reply 26.3

-- ask Name the recorded enrichment ratio for "TYMC" .
-- reply ≤ 0.25

-- ask Name the recorded enrichment ratio for "THAC" .
-- reply 6.19

-- ask Name the recorded enrichment ratio for "VECT" .
-- reply 12

-- ask Name the recorded enrichment ratio for "IQCT" .
-- reply ≤ 0.25

-- ask Name the recorded enrichment ratio for "YTLV" .
-- reply 15.7

-- ask Name the recorded enrichment ratio for "VPMC" .
-- reply ≤ 0.25

-- ask Name the recorded enrichment ratio for "GWCA" .
-- reply ≤ 0.25

-- ask Name the recorded enrichment ratio for "YQPA" .
-- reply ≤ 0.25

-- ask Name the recorded enrichment ratio for "KQHW" .
-- reply ≤ 0.25

-- ask Name the recorded enrichment ratio for "PQKP" .
-- reply ≤ 0.25

-- ask Name the recorded enrichment ratio for "ASTK" .
-- reply ≤ 0.25

-- ask Name the recorded enrichment ratio for "FGMH" .
-- reply ≤ 0.25

-- ask Name the recorded enrichment ratio for "GAHW" .
-- reply ≤ 0.25

-- ask Name the recorded enrichment ratio for "LPNW" .
-- reply 0.366

-- ask Name the recorded enrichment ratio for "SRMC" .
-- reply ≤ 0.25

-- ask Name the recorded enrichment ratio for "ATSH" .
-- reply 10.6

-- ask Name the recorded enrichment ratio for "NGYQ" .
-- reply ≤ 0.25

-- ask Name the recorded enrichment ratio for "LTLV" .
-- reply 1.55

-- ask Name the recorded enrichment ratio for "HAWL" .
-- reply ≤ 0.25

-- ask Name the recorded enrichment ratio for "YITI" .
-- reply ≤ 0.25

-- ask Name the recorded enrichment ratio for "AECL" .
-- reply 20.9

-- ask Name the recorded enrichment ratio for "HEIN" .
-- reply ≤ 0.25

-- ask Name the recorded enrichment ratio for "ITLV" .
-- reply 7.88

-- ask Name the recorded enrichment ratio for "ASLL" .
-- reply 19.9

-- ask Name the recorded enrichment ratio for "RGYQ" .
-- reply ≤ 0.25

-- ask Name the recorded enrichment ratio for "TEMC" .
-- reply 18.9

-- ask Name the recorded enrichment ratio for "FAGN" .
-- reply ≤ 0.25

-- ask Name the recorded enrichment ratio for "KEPP" .
-- reply ≤ 0.25

-- ask Name the recorded enrichment ratio for "DGHV" .
-- reply ≤ 0.25

-- ask Name the recorded enrichment ratio for "PVQS" .
-- reply ≤ 0.25

-- ask Name the recorded enrichment ratio for "EEMC" .
-- reply ≤ 0.25

-- ask Name the recorded enrichment ratio for "HETV" .
-- reply 4.78

-- ask Name the recorded enrichment ratio for "ASLI" .
-- reply 12.7

-- ask Name the recorded enrichment ratio for "KSYQ" .
-- reply ≤ 0.25

-- ask Name the recorded enrichment ratio for "HKPF" .
-- reply ≤ 0.25

-- ask Name the recorded enrichment ratio for "FFYQ" .
-- reply ≤ 0.25

-- ask Name the recorded enrichment ratio for "WHLP" .
-- reply ≤ 0.25

-- ask Name the recorded enrichment ratio for "AEES" .
-- reply ≤ 0.25

-- ask Name the recorded enrichment ratio for "QYNK" .
-- reply ≤ 0.25

-- ask Name the recorded enrichment ratio for "TTLV" .
-- reply 17.9
